B1: tRNA (parent)
chain: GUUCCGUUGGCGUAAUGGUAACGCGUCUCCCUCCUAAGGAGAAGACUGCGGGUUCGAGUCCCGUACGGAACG

variants of: B1; test: yeast fitness relative to wild type (ratio to wild type); higher = fitter; tRNA-Arg(CCU), competitive growth, 37 C, YPD
Fewer inactive variants are shown than the library holds.
Some variants, each annotated with its measured yeast fitness.

# change, measurement qualifier, yeast fitness
records = [
    ("C24A G48C", "=", 0.621),
    ("A43U G48A U53A", "=", 0.506),
    ("U3A C4A", "=", 0.681),
    ("A21U C31G A42G U53A G68A", "≤", 0.5),
    ("C29U C31A C66G G67U", "≤", 0.5),
    ("C4A G6A C33U A43U C49G G50C C61U C66U", "≤", 0.5),
    ("U2G C24U C29G C61G", "=", 0.635),
    ("U3C G50A A65U", "=", 0.652),
    ("G12A A42C G50C", "≤", 0.5),
    ("C24A C31U", "=", 0.754),
    ("A57U C62U C66U", "=", 0.613),
    ("U2G C29G G44C C49G A57U", "≤", 0.5),
    ("G25C C66U A69C", "=", 0.685),
    ("C30U A37G A42G C60G", "=", 0.516),
    ("G18C C24G A36C G38C U54C G58C", "≤", 0.5),
    ("A20C C24U A57G C61U", "=", 0.617),
    ("U2C G10A G12A G18C C33U A69C", "≤", 0.5),
    ("G23A A43U C49U C62U", "≤", 0.5),
    ("C24U C55G A57C", "≤", 0.5),
    ("G12A A42U C61G", "=", 0.505),
    ("A36U G39A A45G G63U", "=", 0.535),
    ("G6A G9U", "=", 0.774),
]
